- assay_notes: qHTS of pediatric cancer cell lines to identify multiple opportunities for drug repurposing: Primary screen for BT-12 cells (AID 1347101); further: nearly all actives have a fitted effect of over 25% in size
- condition_label: BT-12 viability, CellTiter-Glo luminescence, 48 h; series mostly up to 57.3 µM
Results filed as inconclusive are left out. Active and inactive are the calls of the source. The call rests on the fitted dose curve; in most records, active means well fitted cell-killing curve with a large enough effect; inconclusive means small, poorly fitted or top-dose-only effect; inactive means flat fitted curve, though single readings scatter.
Parameter call: string, one of YES (active), NO (inactive)

For orientation, consider the following solved cases.
compound: CC(=O)[C@]1(O)Cc2c(O)c3c(c(O)c2[C@@H](O[C@H]2C[C@H](N)[C@H](O)[C@H](C)O2)C1)C(=O)c1ccccc1C3=O
group: YES

compound: Cc1ccc(Cl)c(Nc2ccccc2C(=O)O)c1Cl
group: NO

compound: C(=C\c1ccccc1)/CN1CCN(C(c2ccccc2)c2ccccc2)CC1
group: NO

compound: CN(C)CCN(Cc1cccs1)c1ccccn1
group: NO

compound: CC(C)(C)c1ccc(C(=O)CCCN2CCC(OC(c3ccccc3)c3ccccc3)CC2)cc1
group: YES

Task: Fill in: this test's call for CCCCNc1c(C(=O)OCC)c(C)nc2c1cnn2CC is ___
Output: NO

* * *

- assay_notes: qHTS of pediatric cancer cell lines to identify multiple opportunities for drug repurposing: Primary screen for RD cells (AID 1347104); further: nearly all actives have a fitted effect of over 55% in size
- condition_label: RD rhabdomyosarcoma viability, CellTiter-Glo luminescence, 48 h; series mostly up to 46 µM
- Experimental: Drug repurposing or repositioning has been offered as a strategy for drug development in oncology programs. This approach has special potential for childhood cancers and other rare or orphan diseases, where the expected return on new drug development has been a disincentive to pharmaceuticals. […] We employed a titration-based paradigm (quantitative high-throughput screening or qHTS), where all compounds were tested at multiple concentrations for their effect on cell viability. […]
Records with an inconclusive call do not appear. Active and inactive are the calls of the source. The call rests on the fitted dose curve; in most records, active means well fitted cell-killing curve with a large enough effect; inconclusive means small, poorly fitted or top-dose-only effect; inactive means flat fitted curve, though single readings scatter.
Parameter call: string, one of active, inactive

compound: CCCCCN(CCCCC)C(=O)C(CCC(=O)O)NC(=O)c1ccc(Cl)c(Cl)c1 (stereo not given)
group: inactive
--
compound: CCCCCCCC/C=C\CCCCCCCC(=O)NCc1ccc(O)c(OC)c1
group: inactive
--
compound: NC(=O)c1ncn([C@@H]2O[C@H](CO)[C@@H](O)[C@H]2O)c1O
group: inactive
--
compound: CC(=O)[C@]1(O)Cc2c(O)c3c(c(O)c2[C@@H](O[C@H]2C[C@H](N)[C@H](O)[C@H](C)O2)C1)C(=O)c1ccccc1C3=O
group: active
--
compound: O=C(O)CN(CCN(CC(=O)O)CC(=O)O)CCN(CC(=O)O)CC(=O)O
group: inactive

Task: Fill in: this test's call for CCCC(C(=O)OCCN(CC)CC)(c1ccccc1)c1ccccc1 is ___
Output: active

Task: Fill in: this test's call for Cc1nc2c([nH]1)c(=O)n(C)c(=O)n2Cc1ccco1 is ___
Output: inactive

Task: Fill in: this test's call for C[C@@H](O)[C@H]1C(=O)N2C(C(=O)O)=C(SCCN=CN)C[C@H]12 is ___
Output: inactive

Task: Fill in: this test's call for COCCc1ccc(OCC(O)CNC(C)C)cc1 (stereo not given) is ___
Output: inactive

Task: Fill in: this test's call for CCN(CC)CC(=O)Nc1c(C)cccc1C is ___
Output: inactive

* * *

- assay_notes: S16 Schwann cell viability assay (CellTiter-Glo assay) (AID 624031);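 further: native untransfected S16 rat Schwann cells; cellular ATP luminescence as a viability measure; plate controls were DMSO-treated cells for no effect and cell-free wells for full effect; nearly all actives have a fitted effect of over 70% in size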
- condition_label: S16 rat Schwann cells viability, 24 h; series mostly up to 57.5 µM
Records with an inconclusive call do not appear. Activity calls are given as the source filed them. Calls follow the shape of the dose curve; as a rule, active = well fitted cell-killing curve with a large enough effect; inconclusive = small, poorly fitted or top-dose-only effect, or effect the other way; inactive = flat fitted curve, though single readings scatter.
Parameter call: string, one of YES for active, NO for inactive

Task: Fill in: this test's call for Cc1nc2c([nH]1)c(=O)n(C)c(=O)n2Cc1ccco1 is ___
Output: NO

Task: Fill in: this test's call for Cc1ccc(Cl)c(Nc2ccccc2C(=O)O)c1Cl is ___
Output: NO

Task: Fill in: this test's call for CC(C)NNC(=O)c1ccncc1 is ___
Output: NO

Task: Fill in: this test's call for O=c1[nH]c(=O)n([C@H]2C[C@H](O)[C@@H](CO)O2)cc1Br is ___
Output: NO

Task: Fill in: this test's call for CNC1(C)C2CCC(C2)C1(C)C (stereo unspecified) is ___
Output: NO

Task: Fill in: this test's call for NC(=O)c1cn(Cc2c(F)cccc2F)nn1 is ___
Output: NO

Task: Fill in: this test's call for FC(F)(F)c1ccccc1-n1ccnc1 is ___
Output: NO

Task: Fill in: this test's call for O=C(O)CN(CCN(CC(=O)O)CC(=O)O)CCN(CC(=O)O)CC(=O)O is ___
Output: NO

Task: Fill in: this test's call for CNCCC(Oc1ccccc1OC)c1ccccc1 (stereo unspecified) is ___
Output: NO

Task: Fill in: this test's call for CC(C)[N+](C)(CCOC(=O)C1c2ccccc2Oc2ccccc21)C(C)C is ___
Output: NO

Task: Fill in: this test's call for CSc1ccc(C(=O)c2[nH]c(=O)[nH]c2C)cc1 is ___
Output: NO

Task: Fill in: this test's call for CN=C(NC#N)NCCSCc1nc[nH]c1C is ___
Output: NO

* * *

- target_or_test_system: Glutathione peroxidase 1 (Homo sapiens) (UniProt P07203)
- Sequence (P07203 whole entry, looked up): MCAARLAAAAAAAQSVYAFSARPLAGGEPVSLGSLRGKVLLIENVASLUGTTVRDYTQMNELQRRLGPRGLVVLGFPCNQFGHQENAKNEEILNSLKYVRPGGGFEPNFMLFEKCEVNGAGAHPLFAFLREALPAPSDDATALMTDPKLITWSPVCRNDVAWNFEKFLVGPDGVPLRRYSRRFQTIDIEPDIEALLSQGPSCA
- assay_notes: Primary qHTS Assay for Inhibitors of Recombinant Selenoprotein Glutathione Peroxidase 1 (GPX1) (AID 1845191); further: nearly all actives have a fitted effect of over 65% in size
- condition_label: recombinant GPX1, GR-coupled NADPH fluorescence, 15 min; series mostly up to 48.8 µM
Inconclusive results are not listed. The source made the active and inactive calls. Calls follow the shape of the dose curve; as a rule, active = well fitted inhibition curve with a large enough effect; inconclusive = small, poorly fitted or top-dose-only effect; inactive = flat fitted curve, though single readings scatter.
Parameter call: string, one of active, inactive

For orientation, consider the following solved cases.
compound: NC(N)=NC(=O)Cc1c(Cl)cccc1Cl
target_or_test_system: Glutathione peroxidase 1 (Homo sapiens) (UniProt P07203)
group: inactive
//
compound: CC(=O)OCC1=C(C(=O)O)N2C(=O)[C@@H](NC(=O)Cc3cccs3)[C@H]2SC1
target_or_test_system: Glutathione peroxidase 1 (Homo sapiens) (UniProt P07203)
group: active
//
compound: CCC(=O)c1ccc2c(c1)N(CCCN(C)C)c1ccccc1S2
target_or_test_system: Glutathione peroxidase 1 (Homo sapiens) (UniProt P07203)
group: inactive
//
compound: CCOC(=O)C1=C(C)NC(C)=C(C(=O)OC)C1c1cccc([N+](=O)[O-])c1 (stereo not given)
target_or_test_system: Glutathione peroxidase 1 (Homo sapiens) (UniProt P07203)
group: inactive
//
compound: Cc1nnc(SCC2=C(C(=O)O)N3C(=O)[C@@H](NC(=O)Cn4cnnn4)[C@H]3SC2)s1
target_or_test_system: Glutathione peroxidase 1 (Homo sapiens) (UniProt P07203)
group: active
//
compound: CN(C)CCOC(=O)COc1ccc(Cl)cc1
target_or_test_system: Glutathione peroxidase 1 (Homo sapiens) (UniProt P07203)
group: inactive
//
compound: CC(=O)[C@]1(O)Cc2c(O)c3c(c(O)c2[C@@H](O[C@H]2C[C@H](N)[C@H](O)[C@H](C)O2)C1)C(=O)c1ccccc1C3=O
target_or_test_system: Glutathione peroxidase 1 (Homo sapiens) (UniProt P07203)
group: inactive
//
compound: Cc1cc(C)c(/C=C2\C(=O)Nc3ccccc32)[nH]1
target_or_test_system: Glutathione peroxidase 1 (Homo sapiens) (UniProt P07203)
group: inactive

Task: Fill in: this test's call for CSc1ccc(C(=O)c2[nH]c(=O)[nH]c2C)cc1 is ___
Output: inactive

Task: Fill in: this test's call for COCCc1ccc(OCC(O)CNC(C)C)cc1 (stereo not given) is ___
Output: inactive

* * *

- assay_notes: qHTS of pediatric cancer cell lines to identify multiple opportunities for drug repurposing: Primary screen for NB1643 cells (AID 1347099);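 further: plate controls were DMSO neutral control for no effect and bortezomib positive control for full effect; nearly all actives have a fitted effect of over 50% in size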
- condition_label: NB1643 neuroblastoma viability, CellTiter-Glo luminescence, 48 h; series mostly up to 46 µM
Results filed as inconclusive are left out. Calls of active or inactive are those of the source. Calls come from the whole dose curve; as a rule, active = well fitted cell-killing curve with a large enough effect; inconclusive = small, poorly fitted or top-dose-only effect; inactive = no such curve, though single readings can be large or run the other way.
Parameter call: string, one of true (1) = active, false (0) = inactive

For orientation, consider the following solved cases.
molecule: O=c1[nH]c(=O)n([C@H]2C[C@H](O)[C@@H](CO)O2)cc1Br
group: false (0)

molecule: COc1ccc(CCN(C)CCCC(C#N)(c2cc(OC)c(OC)c(OC)c2)C(C)C)cc1OC (configuration not stated)
group: false (0)

molecule: C#CCN(C)CCCOc1ccc(Cl)cc1Cl
group: false (0)

molecule: CN(C)C(=O)Oc1ccc[n+](C)c1
group: false (0)

molecule: O=C(O)CP(=O)(O)O
group: false (0)

molecule: COCC(=O)O[C@]1(CCN(C)CCCc2nc3ccccc3[nH]2)CCc2cc(F)ccc2[C@@H]1C(C)C
group: false (0)

molecule: CCCN1C[C@H](CSC)C[C@@H]2c3cccc4[nH]cc(c34)C[C@H]21
group: false (0)

molecule: CC(N=C(NC#N)Nc1ccncc1)C(C)(C)C (configuration not stated)
group: false (0)

Task: Fill in: this test's call for C=CCc1ccccc1OCC(O)CNC(C)C (configuration not stated) is ___
Output: false (0)

Task: Fill in: this test's call for CCc1cccc(N(C)C(N)=Nc2cccc3ccccc23)c1 is ___
Output: false (0)

Task: Fill in: this test's call for CNCCCN1c2ccccc2CCc2ccccc21 is ___
Output: false (0)
